- Test system: Plasmodium berghei
- test method notes: Screen against P. berghei liver stage (PbLuc), transformed with Luciferase, at 10uM
- Assay type: functional, HepG2
- stated conditions: tested at 10 uM
In all, about 69,000 compounds went through this assay and about 8,600 (12%) showed an effect of 50% or more. Only a selection was taken, and strong results are over-represented in it overall.
Measured INHIBITION accompanies every entry in the list below.
readout type: INHIBITION (%)

1. CC(C(=O)NCc1ccnc(N(C)C)c1)n1cccn1 (stereo unspecified): 49.4
2. CCN1CC[C@@]2(C(=O)Nc3ccccc3)CCN(S(C)(=O)=O)CC[C@@H]12: 35.8
3. COCc1cc(O)nc(C2CCCN(Cc3cccc(Cl)c3Cl)C2)n1 (stereo unspecified): 17.4
4. CN1CCC(N(C)CCC(=O)N2CCN(Cc3cccc(F)c3)CC2)C1 (stereo unspecified): -0.991
5. CCC(C)NC(=O)CS(=O)(=O)Cc1nc(-c2cccs2)no1 (stereo unspecified): 46.4
6. CN1CCN(C(=O)CCn2c(C(F)(F)F)cc3cccnc32)CC1: -15.3
7. Cc1noc(CS(=O)(=O)CC(=O)NC(C)c2ccccc2)n1 (stereo unspecified): 31.2
8. O=C(c1ccc(N2CCOCC2)nc1)N1CCCC(n2ccnc2)C1 (stereo unspecified): 13.05
9. CNC(=O)CCS(=O)(=O)Cc1cc(Cl)c2c(c1)OCCO2: 15.3
10. CCc1nnc(S(=O)(=O)Cc2cc(Cl)c3c(c2)OCO3)n1C: 24.8
11. CC(C(N)=O)S(=O)(=O)Cc1cc(Cl)c2c(c1)OCO2 (stereo unspecified): 16.7
12. Cc1cc(C)cc(N2CC(c3nnc(N)s3)CC2=O)c1 (stereo unspecified): -11.4
13. Cn1cnnc1S(=O)(=O)Cc1cc(Cl)c2c(c1)OCO2: 68.4
14. CCC(C)(CC(=O)OC)NCc1nc(C)no1 (stereo unspecified): -50.8
15. COCC1c2c(cnn2CC2CC2)CCN1Cc1nccs1 (stereo unspecified): 7.11
16. COc1ccc(CC(=O)N2CCCC2c2nc(C)c(C)c(O)n2)cc1 (stereo unspecified): 46
17. COc1ccc(F)c(CN2CCCC(c3cc(O)nc(C)n3)C2)c1 (stereo unspecified): 25.8
18. Cc1cc(C(=O)N2CCc3nc(N4CCCC4)nc(C)c3CC2)c(C)o1: 67.5
19. CN(C)C(=O)CS(=O)(=O)Cc1cc(Cl)c2c(c1)OCCO2: 16.9
20. COc1cccc(CN2CCC(c3cc(O)nc(C)n3)C2)c1 (stereo unspecified): 47.8
21. CN1CCC(N(C)CCC(=O)N2CCC(Cc3ccc(F)cc3)CC2)C1 (stereo unspecified): 66.4
22. NC(=O)CC1CCN(C(=O)CCOc2ccc(Cl)cc2)CC1: 23.2
23. Cc1cnc(C)c(N2CCC(C(=O)O)(n3ccc(C(C)(C)C)n3)CC2)n1: 3.84
24. Cc1nc(N2CCOCC2)nc2c1CN(C(=O)C(C)C)CC2: 5.04
25. CN1CCC(N(C)CCC(=O)N2CCC(CCc3ccccc3)CC2)C1 (stereo unspecified): 74.3
26. Cc1cc(C)n(CC(C)Nc2nc(C)nc3c2CCNC3)n1 (stereo unspecified): -9.18
27. CCC(C)(CC(=O)OC)NCc1noc(C)n1 (stereo unspecified): -31.9
28. Cc1cc(N2CCc3cncnc3C2)n2nc(C(F)(F)F)nc2n1: 50.8
29. Cc1nc(N2CCCC2)nc2c1CN(C(=O)N1CCOCC1)CC2: 34.9
30. Cc1nc(N2CCCC2)nc2c1CCN(C(=O)c1ccoc1C)CC2: 3.17
31. CC(=O)N1CC2(CCCN(Cc3ccc(Cl)cc3)C2)Cc2ccccc21 (stereo unspecified): 49.1
32. CS(=O)(=O)N1CC2(CCCN2Cc2ccc(Cl)cc2)Cc2ccccc21 (stereo unspecified): 23.4
33. C[C@H]1CN(CC2CCOCC2)C[C@@]12CCN(Cc1cccnc1)C2=O: 3.81
34. Cn1cnnc1S(=O)(=O)Cc1cc(Cl)c2c(c1)OCCO2: 63.8
35. CS(=O)(=O)N1C[C@@H](Oc2ccccn2)[C@H]2OCCC[C@H]21: 29
36. Cc1cc(C(=O)N2CCc3nc(N4CCOCC4)nc(C)c3C2)c(C)o1: 55.7
37. COCc1cc(O)nc(C2CCCN(Cc3ccc(F)cc3)C2)n1 (stereo unspecified): 39.7
38. CS(=O)(=O)N1Cc2ccccc2CC2(CCN(Cc3ccccc3)C2)C1 (stereo unspecified): 55.7
39. Cc1cnc(C)c(N2CCC(c3nnc(CN(C)C)n3C3CC3)CC2)n1: 77.8
40. CC(C)(C)c1ccn(C2(C(=O)O)CCN(c3ncccc3C#N)CC2)n1: 7.24
41. CN(C)Cc1nnc(C2CCN(c3ncccn3)CC2)n1C1CC1: -12.1
42. Cc1cc(N2CCc3c(ncn3C)C2)n2nc(C(F)(F)F)nc2n1: 20
43. Cc1nc(N2CCCC2)nc2c1CCN(C(=O)N1CCCC1)CC2: -23.3
44. CN1CC[C@H](N(C)Cc2ccccc2)C[C@H](O)C1: 18.4
45. COc1nccnc1N1CCC(C(=O)O)(n2ccc(C(C)(C)C)n2)CC1: 53.8
46. COc1ccc(OC2CCN(C(=O)CCc3nc(Cl)n[nH]3)CC2)cc1: 28.4
